These entries and their values trace back to patent EP4678643A1.

test: Pharmacokinetic evaluation by intravenous injection or oral gavage in mice; conditions: mouse, plasma, po, 5 mg/kg/day
measurement name: AUC(0-t) (µg·h/mL)
Reply numerically in µg·h/mL, unit not repeated.

[in] What does the data say about its AUC(0-t)? Entry: C#Cc1c(F)ccc2cc(O)cc(-c3nc(C#CC)c4c(N5CCCCC(F)C5)nc(OC[C@@]56CCCN5C[C@H](F)C6)nc4c3F)c12 (stereo partly shown)
[out] 5.96

----------
test: in vivo; conditions: mouse, po, 5 mg/kg/day
measurement name: Tmax (min)
Report as a plain number; the unit min is understood.

[in] Dear colleague, I am looking for the recorded Tmax of the following compound: C#Cc1c(F)ccc2cc(O)cc(-c3nc(C#CCC)c4c(N5CCCCC(F)C5)nc(OC[C@@]56CCCN5C[C@H](F)C6)nc4c3F)c12 (stereo partly shown) [Compound 26]
[out] 30
